- target_or_test_system: BaF3-FLT3-ITD-D835V (Homo sapiens, UniProt P36888, D835V, cells depend on it, form not given)
- protocol_description: Cell Assay CS0048: BaF3-FLT3-ITD-D835V CTB
- Assay type: cell-based, murine
- condition_label: three day growth assay in the absence of IL3; read-out: Cell Assay: CS0048: BaF3-FLT3-ITD-D835V CTB:IC50
Please respond with label 1 when measured GI50 is strictly beneath 100 nM, and with label 0 in all other cases.

[[record]]
structure_smiles_string = "CC(C)(c1cc(NC(=O)Cc2ccc(-c3ccc(NCCN4CCOCC4)nc3)cc2)no1)C(F)(F)F"
label_class = "label 0"

[[record]]
structure_smiles_string = "CNc1ccc(-c2ccc(CC(=O)Nc3cc(C(C)(C)C)on3)cc2)cn1"
label_class = "label 1"

[[record]]
structure_smiles_string = "CC(C)(C)c1cc(NC(=O)Nc2ccc(-c3cnc(NC4CCOCC4)nc3)cn2)no1"
label_class = "label 0"

[[record]]
structure_smiles_string = "CC(C)(C)c1cc(NC(=O)Nc2ccc(-c3cnc(NC4CC4)nc3)cn2)no1"
label_class = "label 0"

[[record]]
structure_smiles_string = "CCNc1ccc(-c2ccc(CC(=O)Nc3cc(C(C)(C)C)on3)cc2)cn1"
label_class = "label 1"


* * *

The following compounds are shown together with reported pIC50 values.
- target_or_test_system: FLT3-D835Y (Homo sapiens, UniProt P36888, D835Y)
- protocol_description: FLT3-D835Y recombinant enzyme kinase assay (AlphaScreen)
- condition_label: 8 pt, GMean
pIC50: −log10 of the molar value.
property_label: pIC50

[[record]]
structure_smiles_string = "Cc1ncc(NC(=O)Cc2ccc(-c3cnc4[nH]cc(Cl)c4n3)cc2F)cc1C(F)(F)F"
property_label = "pIC50"
result = "5.00 to 10.00"

[[record]]
structure_smiles_string = "O=C(Cc1ccc(-c2cnc(Nc3cnn(C4CC4)c3)nc2)cc1)Nc1ccc(C(F)(F)F)nc1"
property_label = "pIC50"
result = "5.00 to 10.00"

[[record]]
structure_smiles_string = "COc1ncc(NC(=O)Cc2ccc(-c3cnc4[nH]c(-c5ccnc(C#N)c5)cc4c3)c(F)c2)cc1C(F)(F)F"
property_label = "pIC50"
result = "5.00 to 10.00"

[[record]]
structure_smiles_string = "O=C(Cc1ccc(-c2cnc(Nc3cnn(C4CC4)c3)nc2)cc1)Nc1cncc(C(F)(F)F)c1"
property_label = "pIC50"
result = "5.00 to 10.00"

[[record]]
structure_smiles_string = "O=C(Cc1ccc(-c2cnc(Nc3cnn(C4CC4)c3)nc2)cc1F)Nc1cncc(C(F)(F)F)c1"
property_label = "pIC50"
result = "5.00 to 10.00"

[[record]]
structure_smiles_string = "COc1ncc(NC(=O)Cc2ccc(-c3cnc4[nH]nc(C5CC5)c4c3)cc2F)cc1C(F)(F)F"
property_label = "pIC50"
result = "5.00 to 10.00"

[[record]]
structure_smiles_string = "COCCn1cc(Nc2ncc(-c3ccc(CC(=O)Nc4ccc(C(F)(F)F)cn4)c(F)c3)cn2)cn1"
property_label = "pIC50"
result = "5.00 to 10.00"


* * *

- Tested on: MOLM-14 F691L (endogenous FLT3 ITD and transfected FLT3 F691L)
- protocol_description: MOLM-14 F691L cell proliferation assay (CellTiter-Glo)
- Format: cell-based
- condition_label: Homo sapiens, MOLM-14, 72 h; 3 d growth, GMean
pIC50: −log10 of the molar value.
property_label: pIC50

[[record]]
structure_smiles_string = "Cn1cnc(Nc2ncc(-c3ccc(CC(=O)Nc4cncc(C(F)(F)F)c4)cc3)cn2)c1"
property_label = "pIC50"
result = "5.00 to 10.00"

[[record]]
structure_smiles_string = "Cn1cc(Nc2ncc(-c3ccc(CC(=O)Nc4cc(C(F)(F)F)ccn4)c(F)c3)cn2)cn1"
property_label = "pIC50"
result = "5.00 to 10.00"

[[record]]
structure_smiles_string = "O=C(Cc1cc(F)c(-c2cnc3[nH]c(-c4ccnc(N5CCOCC5)c4)cc3c2)cc1F)Nc1cc(C(F)(F)F)ccn1"
property_label = "pIC50"
result = "5.00 to 10.00"

[[record]]
structure_smiles_string = "COc1ncc(NC(=O)Cc2ccc(-c3cnc(Nc4cn(C)cn4)nc3)cc2F)cc1C(F)(F)F"
property_label = "pIC50"
result = "5.00 to 10.00"

[[record]]
structure_smiles_string = "COCCn1cc(Nc2ncc(-c3ccc(CC(=O)Nc4cc(C(F)(F)F)ccn4)c(F)c3)cn2)cn1"
property_label = "pIC50"
result = "5.00 to 10.00"

[[record]]
structure_smiles_string = "COc1ncc(NC(=O)Cc2ccc(-c3cnc(Nc4cn[nH]c4)nc3)cc2F)cc1C(F)(F)F"
property_label = "pIC50"
result = "5.00 to 10.00"

[[record]]
structure_smiles_string = "CC(C)(O)C#Cc1cc2cc(-c3ccc(CC(=O)Nc4cncc(C(F)(F)F)c4)cc3)cnc2[nH]1"
property_label = "pIC50"
result = "5.00 to 10.00"

